Attribute: EC50
Target: fMet-Leu-Phe receptor (Homo sapiens)
Sequence (P21462 whole entry): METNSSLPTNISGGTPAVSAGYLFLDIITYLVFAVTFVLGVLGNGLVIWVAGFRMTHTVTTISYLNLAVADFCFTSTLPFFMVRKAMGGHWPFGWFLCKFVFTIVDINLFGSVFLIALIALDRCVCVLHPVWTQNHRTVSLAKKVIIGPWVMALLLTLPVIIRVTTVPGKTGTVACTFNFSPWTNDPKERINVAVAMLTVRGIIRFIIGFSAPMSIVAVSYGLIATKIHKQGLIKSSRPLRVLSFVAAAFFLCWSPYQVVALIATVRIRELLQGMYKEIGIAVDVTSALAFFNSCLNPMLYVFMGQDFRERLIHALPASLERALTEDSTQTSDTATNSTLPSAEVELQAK
Experiment: Agonist activity at FPR1 (unknown origin) in HEK293 cells
Type: functional, cell-based
Endpoint: EC50 (nM)

1) COc1ccc(NC(=O)CSc2nc3cc(OC)ccc3[nH]2)cc1: 3700
2) COC(=O)c1ccc(NC(=O)CSc2nc3cc(OC)ccc3[nH]2)cc1: 4700
3) COc1ccc(-n2c(-c3ccccc3)cnc2NC(=O)c2ccc(OC(F)F)cc2)cc1: 38
4) COc1cc(F)c(-n2c(-c3ccccc3)cnc2NC(=O)c2ccc(OC(F)F)cc2)c(F)c1: 200

---

Molecular target: N-formyl peptide receptor 2 (Homo sapiens, UniProt P25090)
Sequence (P25090 whole entry): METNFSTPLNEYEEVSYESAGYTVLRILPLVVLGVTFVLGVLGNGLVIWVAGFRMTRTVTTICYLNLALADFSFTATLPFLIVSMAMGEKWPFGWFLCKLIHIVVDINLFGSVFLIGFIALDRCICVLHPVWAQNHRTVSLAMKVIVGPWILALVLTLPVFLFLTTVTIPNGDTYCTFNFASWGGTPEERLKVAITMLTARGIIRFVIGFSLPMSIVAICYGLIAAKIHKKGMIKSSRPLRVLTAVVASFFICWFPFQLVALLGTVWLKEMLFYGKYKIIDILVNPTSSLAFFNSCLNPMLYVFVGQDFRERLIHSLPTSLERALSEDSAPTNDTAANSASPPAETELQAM
Assay: Agonist activity at FPR2 (unknown origin) in HEK293 cells
Assay type: functional, cell-based
Doc: threshold 4 nM (exclusive). Items with EC50 beneath it return t; others return f.

1) O=C(NCc1ccc(Br)cc1F)[C@@H]1C2CCC([C@H]1C(=O)NC1CCNCC1F)C21CC1 (stereo not given in full): t
2) CCC(Nc1ccc(OC)cc1)C(=O)N/N=C(C)/C=C/c1ccccc1 (stereo not given): f
3) COc1ccc(NC(=O)CSc2nc3cc(OC)ccc3[nH]2)cc1: f
4) CC(=O)CCCCc1nc(NC(=O)OCc2ccccc2C)co1: t
5) O=C(Nc1ccc(Br)nc1)[C@@H]1C2CCC([C@H]1C(=O)OCCC1CCNCC1)C21CC1 (stereo not given in full): t
6) O=C(CN1CCN(c2ccc(Cl)cc2)CC1)Nc1ccc(Br)cc1: f
7) O=C(NCCCCN1CCCCC1)[C@@H]1C2CCC([C@H]1C(=O)Nc1ccc(Br)cc1)C21CC1 (stereo not given in full): t
8) COc1ccc(-n2c(-c3ccccc3)cnc2NC(=O)c2ccc(OC(F)F)cc2)cc1: t
